This collection of values is drawn from ChEMBL document CHEMBL3885861.

- Organism: Rattus norvegicus
- test name: Open TG-GATES - Regimen: Daily Repeat
- Format: toxicity, organism-based, Sprague-Dawley
- Set-up: regimen Daily Repeat, gender Male, age 6 weeks
- conditions: in vivo, po, 0 mg/kg, […], tissue Kidney, route gavage, dose level Control, time 7 day
readout type: KIDNEY_TOTAL (g)
Expressed in g, but write only the number.

What measured KIDNEY_TOTAL goes with O=C(O)COc1nn(Cc2ccccc2)c2ccccc12 [BENDAZAC] ?
2.3

How about CC(C)Cc1ccc(C(C)C(=O)O)cc1 (stereo not drawn) [IBUPROFEN] ?
2.3

How about CC[C@@H](CO)NCCN[C@@H](CC)CO [ETHAMBUTOL] ?
2.2

How about CC(N)=O [ACETAMIDE] ?
2.3

How about CC(=O)N1CCN(c2ccc(OCC3COC(Cn4ccnc4)(c4ccc(Cl)cc4Cl)O3)cc2)CC1 (stereo not drawn) [KETOCONAZOLE] ?
2.4

How about CC(=O)Nc1ccc2c(c1)Cc1ccccc1-2 [2-ACETYLAMINOFLUORENE] ?
2.4

How about CC(CCc1ccccc1)NCC(O)c1ccc(O)c(C(N)=O)c1 (stereo not drawn) [LABETALOL] ?
2.5

How about CCN(CC)N=O [N-NITROSODIETHYLAMINE] ?
2.3

###

- Organism: Rattus norvegicus
- test name: Open TG-GATES - Regimen: Single
- Format: toxicity, organism-based, Sprague-Dawley
- Set-up: regimen Single, gender Male, age 6 weeks
- conditions: in vivo, po, 0 mg/kg, 24 h, tissue Kidney, route gavage, dose level Control
readout type: KIDNEY_R (g)
Expressed in g, but write only the number.

What measured KIDNEY_R goes with CC(CCc1ccccc1)NCC(O)c1ccc(O)c(C(N)=O)c1 (configuration not stated) ?
0.9

How about O=C(O)COc1nn(Cc2ccccc2)c2ccccc12 ?
1

How about CC(=O)Nc1ccc2c(c1)Cc1ccccc1-2 ?
1.1

How about CC(=O)N1CCN(c2ccc(OCC3COC(Cn4ccnc4)(c4ccc(Cl)cc4Cl)O3)cc2)CC1 (configuration not stated) ?
1

How about CCN(CC)N=O ?
1

How about CC[C@@H](CO)NCCN[C@@H](CC)CO ?
1

How about CC(C)Cc1ccc(C(C)C(=O)O)cc1 (configuration not stated) ?
0.9

###

- Species on record: Rattus norvegicus
- test name: Open TG-GATES - Regimen: Single
- Assay type: toxicity, organism-based, Sprague-Dawley
- Design: regimen Single, gender Male, age 6 weeks
- conditions: in vivo, po, 0 mg/kg, 9 h, tissue Blood, route gavage, dose level Control
Decide using Ret alone. Strictly below 7%: Criterion met. Equal to or above 7%: Criterion not met.

Is it true that Ret reported for CC(CCc1ccccc1)NCC(O)c1ccc(O)c(C(N)=O)c1 (configuration not stated) is less than 7%?
Criterion not met

How about CC(C)Cc1ccc(C(C)C(=O)O)cc1 (configuration not stated) ?
Criterion not met

How about O=C(O)COc1nn(Cc2ccccc2)c2ccccc12 ?
Criterion not met

How about CC(=O)Nc1ccc2c(c1)Cc1ccccc1-2 ?
Criterion met

How about CC(=O)N1CCN(c2ccc(OCC3COC(Cn4ccnc4)(c4ccc(Cl)cc4Cl)O3)cc2)CC1 (configuration not stated) ?
Criterion not met

###

- Species on record: Rattus norvegicus
- test name: Open TG-GATES - Regimen: Single
- Type: toxicity, organism-based, Sprague-Dawley
- Design: regimen Single, gender Male, age 6 weeks
- conditions: in vivo, po, 0 mg/kg, 24 h, tissue Blood, route gavage, dose level Control
Consider the following molecules; for each one, report its Neu.
Expressed in %, but write only the number.

What measured Neu goes with CC(CCc1ccccc1)NCC(O)c1ccc(O)c(C(N)=O)c1 (configuration not stated) [LABETALOL] ?
17.4

How about CC(=O)N1CCN(c2ccc(OCC3COC(Cn4ccnc4)(c4ccc(Cl)cc4Cl)O3)cc2)CC1 (configuration not stated) [KETOCONAZOLE] ?
19

How about CC(C)Cc1ccc(C(C)C(=O)O)cc1 (configuration not stated) [IBUPROFEN] ?
15.2

How about CC[C@@H](CO)NCCN[C@@H](CC)CO [ETHAMBUTOL] ?
13.4

How about CCN(CC)N=O [N-NITROSODIETHYLAMINE] ?
13.8

How about O=C(O)COc1nn(Cc2ccccc2)c2ccccc12 [BENDAZAC] ?
12.4

How about CC(=O)Nc1ccc2c(c1)Cc1ccccc1-2 [2-ACETYLAMINOFLUORENE] ?
13.2
